This listing pairs compounds with measured Ki.
TARGET_OR_SYSTEM: UniProt P41144
Sequence (P41144 whole entry): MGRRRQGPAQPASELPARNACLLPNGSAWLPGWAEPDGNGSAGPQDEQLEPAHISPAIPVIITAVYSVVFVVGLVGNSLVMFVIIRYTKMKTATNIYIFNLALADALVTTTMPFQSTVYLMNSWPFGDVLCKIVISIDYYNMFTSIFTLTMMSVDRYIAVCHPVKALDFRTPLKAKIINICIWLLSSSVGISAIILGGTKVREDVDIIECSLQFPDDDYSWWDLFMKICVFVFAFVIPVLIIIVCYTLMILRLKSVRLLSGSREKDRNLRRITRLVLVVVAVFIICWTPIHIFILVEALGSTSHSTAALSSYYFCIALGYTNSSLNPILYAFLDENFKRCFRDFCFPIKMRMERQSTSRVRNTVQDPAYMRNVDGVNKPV
EXPERIMENTAL_READOUT: Ki (nM)

SUBSTANCE_SMILES	TARGET_OR_SYSTEM	UNIT_OF_MEASURE	RECORDED_MEASUREMENT
O=C(/C=C/c1ccccc1)O[C@@]12CCC(=O)[C@@H]3Oc4c(O)ccc5c4[C@@]31CCN(CC1CC1)[C@@H]2C5	UniProt P41144	nM	3.6
Cc1ccc(/C=C/C(=O)O[C@@]23CCC(=O)[C@@H]4Oc5c(O)ccc6c5[C@@]42CCN(CC2CC2)[C@@H]3C6)cc1	UniProt P41144	nM	8.1
O=C(/C=C/c1ccc(Cl)cc1)O[C@@]12CCC(=O)[C@@H]3Oc4c(O)ccc5c4[C@@]31CCN(CC1CC1)[C@@H]2C5	UniProt P41144	nM	8.3
